# assayNotes: viability loss with induced miR-34 in A549 – imaging, A549 dox-inducible miR-34, nuclei and caspase counts, primary screen (AID 1347080); also: test concentration not given here
# conditionInfo: A549 miR-34 inducible, Hoechst nuclei count, 48 h; measured here: total cells without miR-34 induction
Recorded cell count split into classes low (below 5000), moderate (5000 to below 8000), high (8000 or more)

>>> print(df.to_string())
                                    compound  assignedclass
 0                    O=C(O)c1ccc2c(c1)CCCC2       moderate
 1  c1ccc2c(NCCCCCCCNc3c4c(nc5ccccc35)CCCC4)c3c(nc2c1)CCCC3            low
 2  C=C(C)[C@@H]1CCC(C)=C[C@H]1c1c(O)cc(C)cc1O       moderate
 3  CC(C)N1CCN(c2ccc(C(=O)c3c(-c4ccc(O)cc4)sc4cc(O)ccc34)cc2)CC1       moderate
 4          O=c1cc(N2CCOCC2)oc2c1ccc1ccccc12       moderate
 5  CCOC(=O)C12CC1/C(=N\O)c1ccccc1O2 (configuration not stated)           high
 6  CC(C)(C)c1cc(C(=O)/C=C/c2ccc(C(=O)O)cc2)cc(C(C)(C)C)c1            low
 7  COC(=O)Nc1ccc(-c2nc(N3CCOCC3)c3cnn(C4CCN(C(=O)OC)CC4)c3n2)cc1            low
 8              O=C(c1ccc2c(c1)OCO2)N1CCCCC1           high
 9  C[C@H]([C@@H](O)c1ccc(O)cc1)N1CCC(Cc2ccccc2)CC1 (racemic)           high
10  CO[C@@H]1[C@H](O)[C@@H](CO)O[C@H]1n1cnc2c(NC3CCCCC3)ncnc21           high
11  CCCCCC(=O)CC[C@H]1C=CC(=O)[C@@H]1C/C=C\CCCC(=O)O       moderate
12  C[C@@H](CN1CCC(n2c(=O)[nH]c3cc(Cl)ccc32)CC1)NC(=O)c1ccc2ccccc2c1            low
13  CCCCCCCC/C=C\CCCCCCCCCCCCCC(=O)NCCS(=O)(=O)O       moderate
14  OC1C[C@@H]2[C@@H](CC[C@@H](O)CCc3ccccc3)[C@H](O)C[C@@H]2O1 (some centres not stated)       moderate
15               O=C(O)Cc1cc2ccccc2nc1C(=O)O           high
16      COc1cc2ncnc(Nc3ccc(O)c(Br)c3)c2cc1OC       moderate
17  O=C(O)CCCCCC[C@H]1C(=O)C[C@@H](O)[C@@H]1/C=C/[C@@H](O)Cc1ccccc1       moderate
18  CCCCCCCCCCCCCCCC(=O)OC[C@H](COP(=O)([O-])OCC[N+](C)(C)C)OC(=O)CCCCCCCCCCCCCCC       moderate
19  O=C(O)CCCCC(CCSCc1ccccc1)SCc1ccccc1 (configuration not stated)           high
20  O=[N+]([O-])c1ccccc1S(=O)(=O)NCC1CCC(CNCC2CCc3ccccc3C2)CC1 (configuration not stated)            low
21  C=CCN(C)CCCCCCOc1ccc(C(=O)c2ccc(Br)cc2)c(F)c1       moderate
22  CC(=O)c1c(C)c2cnc(Nc3ccc(N4CCNCC4)cn3)nc2n(C2CCCC2)c1=O            low
23  Nc1ccccc1NC(=O)c1ccc(CNc2nccc(-c3cccnc3)n2)cc1            low
24  CCCNS(=O)(=O)Nc1ncnc(OCCOc2ncc(Br)cn2)c1-c1ccc(Br)cc1           high
25     CN=C1C=C2C(=NC=NC2=Nc2cccc(Br)c2)C=N1            low
26  O=C(O)CC/C=C\C[C@@H]1CO[C@H](c2ccccc2Cl)O[C@@H]1c1ccccc1O           high
27  CN1C[C@@H]2c3ccccc3Oc3ccc(Cl)cc3[C@H]2C1       moderate
28         CCCCC/C=C\C/C=C\CC/C=C\CCCC(=O)OC       moderate
29    C[N+](C)(C)CCCCCNCC12CC3CC(CC(C3)C1)C2           high
30         NS(=O)(=O)c1nn2cc(-c3ccccc3)nc2s1            low
31  COc1ccc(C2CC(c3c(O)cc(C)oc3=O)=NCCS2)c(OC)c1 (configuration not stated)            low
32  NC(C(=O)O)c1cc(O)cc(O)c1 (configuration not stated)           high
33  O=C(O)c1ccc(Nc2ncc3c(n2)-c2ccc(Cl)cc2C(c2c(F)cccc2F)=NC3)cc1            low
34  Cc1cccc(-c2nn3c(c2-c2ccnc4ccc(C(N)=O)cc24)CCC3)n1           high
35  COC(=O)[C@H]1C2C[C@H]3c4[nH]c5ccccc5c4CCN3C[C@H]2CC[C@@H]1O (some centres not stated)           high
36  CCCCC[C@H](O)/C=C/[C@H]1[C@H](O)CC(=O)[C@@H]1CCCCCCCCC(=O)O       moderate
37  CC(=O)N(OCc1ccccc1)[C@@H]1c2cc(C#N)ccc2OC(C)(C)[C@H]1O           high
38  CCN1CCN(Cc2ccc(Nc3ncc(F)c(-c4cc(F)c5nc(C)n(C(C)C)c5c4)n3)nc2)CC1            low
